Where do these numbers come from? They come from the supplement of paper PMC10201428.

B1: library; a variant is named by its letters at N, in order (parent)
chain: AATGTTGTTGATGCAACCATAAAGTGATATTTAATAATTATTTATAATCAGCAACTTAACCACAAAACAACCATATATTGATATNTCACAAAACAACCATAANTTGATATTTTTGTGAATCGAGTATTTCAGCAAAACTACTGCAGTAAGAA

- Variants of: B1
- experiment: relative integration efficiency (T-RL orientation) vs wild-type transposon end (log2 (normalized fold change)); transposon end mutated: left end; higher = more efficient transposition
- conditionContext: with VchCAST RNA-guided transposition machinery (E. coli BL21(DE3) host, lacZ target)
propertyMeasured: relative integration efficiency (log2)
Output spec: single numeric token, no unit.

>>> print(df.to_string())
                  mutationlabel                        propertymeasured  readoutvalue
0                       CG T86C  relative integration efficiency (log2)        -0.261
1        CG A59T C60G C61G A62T  relative integration efficiency (log2)       0.00645
2  CT A22C A23C T76G A77C A102C  relative integration efficiency (log2)         -3.81
3        CG C17A C18A A19C T20G  relative integration efficiency (log2)         -2.69
4                      CG A107T  relative integration efficiency (log2)        -0.795

Could you share which relative integration efficiency (log2) value was measured for CG T45G ? -0.0406

What value of relative integration efficiency (log2) has been recorded for this entry: CG T30G T84G T110G -1.92

Value lookup for relative integration efficiency (log2); key = CG G24A 0.3

What does the record list as relative integration efficiency (log2) for TA A23G G24T A33T T76A T78G C87A A96C T112G T113C ? 0.327

Given the variant TA A22T G24T T31C A33C A70C T76A T86G T104G T113A , what is its reported relative integration efficiency (log2)? -0.861
